# assayed.system: Human complement C1s enzyme (Homo sapiens)
# Construct: purified from human serum, Complement Technology, Inc; purchased Complement Technology, Inc; host or cells: human serum
# test.summary: Human C1s Enzyme Assay
# Format: biochemical
# assay.context: human C1s 1.16 nM, 5 min preincubation, substrate Z-L-Lys-SBzl 100 μM, A405; read-out: C1s Protease Activity

| molecule | IC50 |
| --- | --- |
| C[C@@H](NC(=O)[C@@H]1C[C@H](C2CCCCC2)CN1C(=O)CNC(=O)c1ccc(Oc2ccccc2)cc1)c1cc(C(=N)N)cs1 [Compound 241] | < 100 nM |
| C[C@@]12C[C@@H]1N(C(=O)CNC(=O)c1ccc(Oc3ccccc3)cc1)[C@H](C(=O)OCc1cc(C(=N)N)cs1)C2 [Compound 89] | < 100 nM |
| C[C@@H](NC(=O)[C@@H]1C[C@]2(C)C[C@@H]2N1C(=O)CNC(=O)c1ccc(C(=O)c2ccccc2)cc1)c1cc(C(=N)N)cs1 [Compound 180] | < 100 nM |
| C[C@@]12C[C@@H]1N(C(=O)CNC(=O)c1cccc(Oc3ccccc3)c1)[C@H](C(=O)NCc1cc(C(=N)N)cs1)C2 [Compound 137] | < 100 nM |
| Cc1ccccc1[C@H]1C[C@@H](C(=O)NCc2cc(C(=N)N)cs2)N(C(=O)CNC(=O)CCCOc2ccccc2)C1 [Compound 150] | < 100 nM |
| N=C(N)c1csc([C@H](NC(=O)[C@@H]2C[C@@H](OC(F)F)CN2C(=O)CNC(=O)c2ccc(Oc3ccccc3)cc2)C2CC2)c1 [Compound 183] | > 1000 nM |
| CC(=O)NCCOC[C@@]12C[C@@H]1N(C(=O)CNC(=O)CCCOc1ccccc1)[C@H](C(=O)N[C@H](C)c1cc(C(=N)N)cs1)C2 [Compound 142] | 100 to 1000 nM |
| N=C(N)c1csc([C@@H](CO)NC(=O)[C@@H]2C[C@@H](OC(F)F)CN2C(=O)CNC(=O)c2ccc(Oc3ccccc3)cc2)c1 [Compound 197] | < 100 nM |
| C[C@@H](NC(=O)[C@@H]1C[C@@H](S(C)(=O)=O)CN1C(=O)CNC(=O)CCCOc1ccccc1)c1cc(C(=N)N)cs1 [Compound 125] | < 100 nM |
| CS[C@@H]1C[C@@H](C(=O)NCc2cc(C(=N)N)cs2)N(C(=O)CNC(=O)c2ccc(Oc3ccccc3)cc2)C1 [Compound 45] | < 100 nM |
| N=C(N)c1csc(CNC(=O)[C@@H]2C[C@@H](OCC3CC3)CN2C(=O)CNC(=O)c2ccc(Oc3ccccc3)cc2)c1 [Compound 50] | < 100 nM |
| Cc1cccc(O[C@@H]2C[C@@H](C(=O)N[C@H](C)c3cc(C(=N)N)cs3)N(C(=O)CNC(=O)CCCOc3ccccc3)C2)c1 [Compound 118] | < 100 nM |
| N=C(N)c1csc(CNC(=O)[C@@H]2CC(=C(F)F)CN2C(=O)CNC(=O)CCCOc2ccccc2)c1 [Compound 26] | < 100 nM |
| N=C(N)c1csc(CNC(=O)[C@@H]2C[C@H](C3CCCCC3)CN2C(=O)CNC(=O)c2ccc(Oc3ccccc3)cc2)c1 [Compound 73] | < 100 nM |
| Cc1sc(CNC(=O)[C@@H]2C[C@]3(C)C[C@@H]3N2C(=O)CNC(=O)c2ccc(Oc3ccccc3)cc2)cc1C(=N)N [Compound 204] | > 1000 nM |
| C[C@H](O)[C@H](O)[C@@H](O)[C@@H](O)CNCC(=O)N1[C@H]2C[C@@]2(C)C[C@H]1C(=O)NCc1nc(C(=N)N)cs1 [Compound 78] | > 1000 nM |
| C[C@@H](NC(=O)[C@@H]1C[C@]2(COCCNC(=O)COCCOCCNC(=O)COCCOCCNC(=O)CC[C@H](NC(=O)CCCCCCCCCCCCCCCCC(=O)O)C(=O)O)C[C@@H]2N1C(=O)CNC(=O)CCCOc1ccccc1)c1cc(C(=N)N)cs1 [Compound 152] | < 100 nM |
| Cc1cccc([C@@H]2C[C@@H](C(=O)NCc3cc(C(=N)N)cs3)N(C(=O)CNC(=O)CCCOc3ccccc3)C2)c1 [Compound 171] | < 100 nM |
| C[C@@]12C[C@@H]1N(C(=O)CNC(=O)c1ccc(Oc3ccccc3)cc1)[C@H](C(=O)NS(=O)(=O)c1cc(C(=N)N)cs1)C2 [Compound 86] | > 1000 nM |
| C[C@@]12C[C@@H]1N(C(=O)CNC(=O)c1ccc(Oc3ccccc3)cc1)[C@H](C(=O)NC1CCc3c(C(=N)N)csc3C1)C2 (stereo partly shown) [Compound 258] | > 1000 nM |
| N=C(N)c1csc(CNC(=O)[C@@H]2CC3(CC3)CN2C(=O)CNC(=O)CCCOc2ccccc2)c1 [Compound 55] | < 100 nM |
| C[C@@H](NC(=O)[C@@H]1C[C@](F)(CF)CN1C(=O)CNC(=O)c1ccc(C(=O)c2ccccc2)cc1)c1cc(C(=N)N)cs1 [Compound 202] | < 100 nM |
| N=C(N)c1csc(CNC(=O)[C@@H]2C[C@H](OC(F)F)CN2C(=O)CNC(=O)c2ccc(Oc3ccccc3)cc2)c1 [Compound 36] | < 100 nM |
| CS(=O)(=O)[C@@H]1C[C@@H](C(=O)NCc2cc(C(=N)N)cs2)N(C(=O)CNC(=O)CCCOc2ccccc2)C1 [Compound 98] | < 100 nM |
| N=C(N)c1csc(CNC(=O)[C@@H]2C[C@H](C3CCCCC3)CN2C(=O)CNC(=O)CCCOc2ccccc2)c1 [Compound 242] | < 100 nM |

* * *

# assayed.system: Human complement C1s enzyme (Homo sapiens, UniProt P09871)
# Construct: purified from human serum, Complement Technology, Inc; purchased Complement Technology, Inc; host or cells: human serum
# Sequence (P09871 438-688 limits assumed): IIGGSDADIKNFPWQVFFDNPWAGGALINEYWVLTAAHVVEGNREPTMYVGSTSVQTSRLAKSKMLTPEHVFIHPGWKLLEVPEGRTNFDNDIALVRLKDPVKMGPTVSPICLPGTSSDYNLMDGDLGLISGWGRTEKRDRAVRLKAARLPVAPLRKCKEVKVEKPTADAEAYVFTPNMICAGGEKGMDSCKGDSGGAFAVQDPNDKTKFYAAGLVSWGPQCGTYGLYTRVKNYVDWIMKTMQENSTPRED
# Sequence (P09871 16-437 partner limits assumed): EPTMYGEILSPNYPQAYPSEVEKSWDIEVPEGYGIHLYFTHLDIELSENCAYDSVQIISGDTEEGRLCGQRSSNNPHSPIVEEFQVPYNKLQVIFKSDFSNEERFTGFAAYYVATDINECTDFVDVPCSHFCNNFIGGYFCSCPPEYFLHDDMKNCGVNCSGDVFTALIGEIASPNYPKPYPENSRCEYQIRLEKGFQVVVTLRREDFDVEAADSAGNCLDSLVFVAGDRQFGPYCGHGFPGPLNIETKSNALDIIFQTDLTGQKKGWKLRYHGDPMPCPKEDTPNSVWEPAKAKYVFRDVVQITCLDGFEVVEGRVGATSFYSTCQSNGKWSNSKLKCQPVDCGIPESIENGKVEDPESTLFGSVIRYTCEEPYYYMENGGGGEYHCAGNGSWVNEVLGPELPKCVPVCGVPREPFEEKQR
# test.summary: Human C1s Enzyme Assay
# Type: biochemical
# assay.context: human C1s 1.16 nM, 5 min preincubation, substrate Z-L-Lys-SBzl 100 μM, A405; read-out: C1s Protease Activity
Reported IC50 by item:
parameter.measured: IC50

| chemical.smiles | experimental.value |
| --- | --- |
| C[C@@H](NC(=O)[C@@H]1C[C@]2(C)C[C@@H]2N1C(=O)CNC(=O)CCCOc1ccc(F)cc1)c1cc(C(=N)N)cs1 | 100 to 1000 nM |
| C[C@@]12C[C@@H]1N(C(=O)CNC(=O)CCCOc1cccc(C(=O)O)c1)[C@H](C(=O)NCc1cc(C(=N)N)cs1)C2 | < 100 nM |
| N=C(N)c1csc(CNC(=O)[C@@H]2C[C@@]3(CN2C(=O)CNC(=O)CCCOc2ccccc2)CC3(F)F)c1 | < 100 nM |
| CCCCCCOC(=O)/N=C(\N)c1csc(CNC(=O)[C@@H]2C[C@]3(C)C[C@@H]3N2C(=O)CNC(=O)c2ccc(Oc3ccccc3)cc2)c1 | > 1000 nM |
| C[C@@]12C[C@@H]1N(C(=O)CNC(=O)c1ccc(OC3CCCCC3)cc1)[C@H](C(=O)NCc1cc(C(=N)N)cs1)C2 | < 100 nM |
| CC(C)C[C@@H](NC(=O)[C@@H]1C[C@@H](OC(F)F)CN1C(=O)CNC(=O)c1ccc(Oc2ccccc2)cc1)c1cc(C(=N)N)cs1 | > 1000 nM |
| N=C(N)c1csc(CNC(=O)[C@@H]2C[C@H](C(F)F)CN2C(=O)CNC(=O)c2ccc(Oc3ccccc3)cc2)c1 | < 100 nM |
| C[C@@]12C[C@@H]1N(C(=O)CNC(=O)c1ccc(Oc3ccccc3)cc1)[C@H](C(=O)NCc1cc(C3=NCCN3)cs1)C2 | > 1000 nM |
| C[C@@]12C[C@@H]1N(C(=O)CNC(=O)c1ccc(Oc3ccccc3)cc1)[C@H](C(=O)NCc1ccc(N)nc1)C2 | 100 to 1000 nM |
| C[C@@H](NC(=O)[C@@H]1C[C@@H](OC(F)F)CN1C(=O)CNC(=O)CCCOc1ccccc1)c1cc(C(=N)N)cs1 | < 100 nM |

* * *

# assayed.system: Human complement C1s enzyme (Homo sapiens)
# Construct: purified from human serum, Complement Technology, Inc; purchased Complement Technology, Inc; host or cells: human serum
# test.summary: Human C1s Enzyme Assay
# Format: biochemical
# assay.context: human C1s 1.16 nM, 5 min preincubation, substrate Z-L-Lys-SBzl 100 μM, A405; read-out: C1s Protease Activity
parameter.measured: IC50

| compound | parameter.measured | experimental.value |
| --- | --- | --- |
| C[C@@H](NC(=O)[C@@H]1C[C@@H](S(C)(=O)=O)CN1C(=O)CNC(=O)c1ccc(Oc2ccccc2)cc1)c1cc(C(=N)N)cs1 [Compound 192] | IC50 | < 100 nM |
| N=C(N)c1csc(CNC(=O)[C@@H]2C[C@H](c3ccccc3)CN2C(=O)CNC(=O)c2ccc(Oc3ccccc3)cc2)c1 [Compound 15] | IC50 | 100 to 1000 nM |
| N=C(N)c1csc([C@H](NC(=O)[C@@H]2C[C@@H](OC(F)F)CN2C(=O)CNC(=O)c2ccc(Oc3ccccc3)cc2)C2CCCC2)c1 [Compound 193] | IC50 | > 1000 nM |
| N=C(N)c1csc(CNC(=O)[C@@H]2CC(=C(F)F)CN2C(=O)CNC(=O)c2ccc(Oc3ccccc3)cc2)c1 [Compound 1] | IC50 | < 100 nM |
| N=C(N)c1csc(CNC(=O)[C@@H]2C[C@H](c3ccccc3)CN2C(=O)CNC(=O)CCCOc2ccccc2)c1 [Compound 157] | IC50 | < 100 nM |
| CCOC(=O)c1ccc(OCCCC(=O)NCC(=O)N2[C@H]3C[C@@]3(C)C[C@H]2C(=O)NCc2cc(C(=N)N)cs2)cc1 [Compound 79] | IC50 | < 100 nM |
| Cc1cccc([C@H]2C[C@@H](C(=O)NCc3cc(C(=N)N)cs3)N(C(=O)CNC(=O)CCCOc3ccccc3)C2)c1 [Compound 170] | IC50 | < 100 nM |
| C[C@@]12C[C@@H]1N(C(=O)CNC(=O)c1ccc(Oc3ccccc3)cn1)[C@H](C(=O)NCc1cc(C(=N)N)cs1)C2 [Compound 93] | IC50 | < 100 nM |
| N=C(N)c1csc(C(NC(=O)[C@@H]2C[C@@H](OC(F)F)CN2C(=O)CNC(=O)c2ccc(Oc3ccccc3)cc2)C(=O)O)c1 (stereo partly shown) [Compound 190] | IC50 | < 100 nM |
| C[C@@]12C[C@@H]1N(C(=O)CNC(=O)c1ccc(Oc3ccccc3)cc1)[C@H](C(=O)NCc1cc(/C(N)=N/S(C)(=O)=O)cs1)C2 [Compound 13] | IC50 | > 1000 nM |
| C[C@@]12C[C@@H]1N(C(=O)CNC(=O)c1ccc(Oc3ccccc3)cc1)[C@H](C(=O)NCc1cc(C(=N)N)c(C(F)(F)F)s1)C2 [Compound 248] | IC50 | > 1000 nM |
| N=C(N)c1csc(CNC(=O)[C@@H]2CCC(=O)N2C(=O)CNC(=O)c2ccc(Oc3ccccc3)cc2)c1 [Compound 7] | IC50 | < 100 nM |
| C[C@@]12C[C@@H]1N(C(=O)CNC(=O)CCCOc1ccc(S(F)(F)(F)(F)F)cc1)[C@H](C(=O)NCc1cc(C(=N)N)cs1)C2 [Compound 96] | IC50 | < 100 nM |

All values here come from patent US20250171423A1.
